measurement-notes: log P by HPLC on a reversed-phase column (C 18), EEC Directive 79/831 Annex V.A8
Format: physicochemical
test-context: acidic range, pH 2.7, 0.1% aqueous formic acid/acetonitrile; 55° C.
Description: Called log P (HCOOH) in the table. Called log P (neutral) in the table.
outcome-measure: LOGP_HCOOH (log P (HCOOH))
API note: the answer field is a bare number with no unit suffix.

# count of solved cases: 3
structure_smiles_string=CCS(=O)(=O)c1ccc(-n2ccc3ccccc32)nc1-c1nc2cc(C(F)(F)F)ncc2n1C outcome_measure="LOGP_HCOOH (log P (HCOOH))" assay_value=3.72
structure_smiles_string=CCS(=O)(=O)c1ccc(N2Cc3cccnc3C2)nc1-c1nc2cc(C(F)(F)F)ncc2n1C outcome_measure="LOGP_HCOOH (log P (HCOOH))" assay_value=2.44
structure_smiles_string=CCS(=O)(=O)c1ccc(-n2ccc3ncccc32)nc1-c1nc2cc(C(F)(F)F)ncc2n1C outcome_measure="LOGP_HCOOH (log P (HCOOH))" assay_value=1.75

Item: CCS(=O)(=O)c1ccc(-n2ncc3c(Cl)cccc32)nc1-c1nc2cc(C(F)(F)F)ncc2n1C | LOGP_HCOOH (log P (HCOOH)): 4.27

Item: CCS(=O)(=O)c1ccc(-n2ncc3cccc(Cl)c32)nc1-c1nc2cc(C(F)(F)F)ncc2n1C | LOGP_HCOOH (log P (HCOOH)): 3.44

Item: CCS(=O)(=O)c1ccc(-n2c(=O)oc3ccccc32)nc1-c1nc2cc(C(F)(F)F)ncc2n1C | LOGP_HCOOH (log P (HCOOH)): 3.25

Item: CCS(=O)(=O)c1ccc(N2Cc3ccccc3C2=O)nc1-c1nc2cc(C(F)(F)F)ncc2n1C | LOGP_HCOOH (log P (HCOOH)): 3.32

Item: CCS(=O)(=O)c1ccc(-n2nnc3ccc(Cl)cc32)nc1-c1nc2cc(C(F)(F)F)ncc2n1C | LOGP_HCOOH (log P (HCOOH)): 3.74

src = patent US10375962B2
